- study-system: human SGLT2 (Homo sapiens, UniProt P31639)
- Sequence (P31639 1-672): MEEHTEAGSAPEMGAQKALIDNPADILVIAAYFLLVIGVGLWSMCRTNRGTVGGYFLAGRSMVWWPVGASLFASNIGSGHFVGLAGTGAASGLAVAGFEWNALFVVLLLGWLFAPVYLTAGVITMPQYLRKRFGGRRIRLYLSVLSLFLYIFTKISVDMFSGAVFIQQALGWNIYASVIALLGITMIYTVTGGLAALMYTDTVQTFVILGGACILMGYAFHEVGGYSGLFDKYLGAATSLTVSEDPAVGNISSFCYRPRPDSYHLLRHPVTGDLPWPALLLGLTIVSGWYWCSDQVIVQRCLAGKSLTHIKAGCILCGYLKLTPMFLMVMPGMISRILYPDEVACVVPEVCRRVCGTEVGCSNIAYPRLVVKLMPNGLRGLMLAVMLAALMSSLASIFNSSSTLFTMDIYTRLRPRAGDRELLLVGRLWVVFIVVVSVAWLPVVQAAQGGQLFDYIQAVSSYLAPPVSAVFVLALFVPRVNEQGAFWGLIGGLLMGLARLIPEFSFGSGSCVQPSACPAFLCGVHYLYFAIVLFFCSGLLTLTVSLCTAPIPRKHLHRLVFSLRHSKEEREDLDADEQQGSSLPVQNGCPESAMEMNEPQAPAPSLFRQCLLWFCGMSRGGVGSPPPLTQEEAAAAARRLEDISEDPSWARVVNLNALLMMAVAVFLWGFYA
- experimental-protocol: SGLT2 inhibition assay, 14C-AMG uptake in CHO-K1 cells stably expressing human SGLT2
Structures can show the parent of a compound that is named as a salt.
Below, each entry is listed with its recorded IC50.
parameter-measured: IC50 (nM)

compound: OC[C@H]1O[C@@H](c2ccc(Cl)c(Cc3ccc(OCCOCCOc4ccc(Cc5cc([C@@H]6O[C@H](CO)[C@@H](O)[C@H](O)[C@H]6O)ccc5Cl)cc4)cc3)c2)[C@H](O)[C@@H](O)[C@@H]1O
endpoint-value: 7.6
//
compound: OC[C@H]1O[C@@H](c2ccc(Cl)c(Cc3ccc(OCc4ccc(COc5ccc(Cc6cc([C@@H]7O[C@H](CO)[C@@H](O)[C@H](O)[C@H]7O)ccc6Cl)cc5)nc4)cc3)c2)[C@H](O)[C@@H](O)[C@@H]1O [Compound 14, trifluoroacetate]
endpoint-value: 4.8

###

Below, each entry is listed with its recorded IC50.
- study-system: human SGLT2 (Homo sapiens)
- experimental-protocol: SGLT2 inhibition assay, 14C-AMG uptake in CHO-K1 cells stably expressing human SGLT2
Counter-ions that a name gives are not always drawn.

compound: C[N+](C)(CCOc1ccc(Cc2cc([C@@H]3O[C@H](CO)[C@@H](O)[C@H](O)[C@H]3O)ccc2Cl)cc1)CCOc1ccc(Cc2cc([C@@H]3O[C@H](CO)[C@@H](O)[C@H](O)[C@H]3O)ccc2Cl)cc1 [Compound 15, trifluoroacetate]
IC50 [nM]: 121
--
compound: C[N+](C)(CCCc1ccc(-c2ccc(Cc3cc([C@@H]4O[C@H](CO)[C@@H](O)[C@H](O)[C@H]4O)ccc3Cl)s2)cc1)CCOc1ccc(-c2ccc(Cc3cc([C@@H]4O[C@H](CO)[C@@H](O)[C@H](O)[C@H]4O)ccc3Cl)s2)cc1 [Compound 19, trifluoroacetate]
IC50 [nM]: 24

###

Below, each entry is listed with its recorded inhibition at 1 µM.
- study-system: human SGLT1 (Homo sapiens, UniProt P13866)
- Construct: expressed in transfected cells; host or cells: CHO-K1
- Sequence (P13866 1-664): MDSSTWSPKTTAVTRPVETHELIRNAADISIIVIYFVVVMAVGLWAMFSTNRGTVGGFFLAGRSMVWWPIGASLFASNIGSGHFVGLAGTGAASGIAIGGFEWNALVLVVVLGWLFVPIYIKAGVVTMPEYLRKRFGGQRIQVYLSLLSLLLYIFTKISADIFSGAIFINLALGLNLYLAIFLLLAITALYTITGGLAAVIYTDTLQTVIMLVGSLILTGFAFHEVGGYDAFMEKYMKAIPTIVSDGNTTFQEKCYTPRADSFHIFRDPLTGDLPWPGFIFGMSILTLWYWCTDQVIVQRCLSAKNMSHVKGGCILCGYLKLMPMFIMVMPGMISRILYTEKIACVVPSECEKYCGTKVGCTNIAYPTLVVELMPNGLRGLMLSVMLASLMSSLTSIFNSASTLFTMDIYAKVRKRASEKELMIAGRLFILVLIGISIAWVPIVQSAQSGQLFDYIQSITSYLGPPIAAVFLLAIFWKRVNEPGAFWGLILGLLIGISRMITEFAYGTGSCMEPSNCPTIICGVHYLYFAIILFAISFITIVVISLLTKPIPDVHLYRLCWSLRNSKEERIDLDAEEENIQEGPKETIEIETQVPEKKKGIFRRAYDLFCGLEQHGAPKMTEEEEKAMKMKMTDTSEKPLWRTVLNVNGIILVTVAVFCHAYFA
- experimental-protocol: SGLT1 inhibition assay, 14C-AMG uptake in CHO-K1 cells stably expressing human SGLT1
- Assay type: cell-based
- run-parameters: CHO-K1, CHO-K1 cells, 1 μM test compound; read-out: CHO-K1 Cells SGLT1 % Inh @1 μM
- Procedure: The cells were incubated for 24 hours. […] Plates were counted in a TopCount (Packard, Meriden, Conn.). Each experiment was repeated at least twice. Results are reported as the %-inhibition or IC50 value.
Counter-ions that a name gives are not always drawn.

molecule: COCCOCCOCCOCCOc1ccc(Cc2cc([C@@H]3O[C@H](CO)[C@@H](O)[C@H](O)[C@H]3O)ccc2Cl)cc1
inhibition at 1 µM, %: 14.5
--
molecule: O=S(=O)(O)CCCOc1ccc(Cc2cc([C@@H]3O[C@H](CO)[C@@H](O)[C@H](O)[C@H]3O)ccc2Cl)cc1
inhibition at 1 µM, %: 20
--
molecule: C[N+]1(CCOCCOc2ccc(Cc3cc([C@@H]4O[C@H](CO)[C@@H](O)[C@H](O)[C@H]4O)ccc3Cl)cc2)CCCC1
inhibition at 1 µM, %: 17.5
--
molecule: C[N+]1(CCCCCOc2ccc(Cc3cc([C@@H]4O[C@H](CO)[C@@H](O)[C@H](O)[C@H]4O)ccc3Cl)cc2)CCCC1 [Compound 6, trifluoroacetate]
inhibition at 1 µM, %: 43.1

The measured values listed here are drawn from patent US20210388015A1.
